measured on: Recombinant human renin (Homo sapiens)
Construct: isolate the active form (residues 67-406); made in house; host or cells: FreeStyle 293-F cells, transient expression of pcDNA3.1(+)/hREN
method description: In vitro enzymatic activity assay of renin inhibitors (fluorescence, QXL520/HiLyteFluo488 peptide substrate)
Assay type: biochemical
condition context: recombinant human renin 3 nM, 1 μM substrate, pre-incubated 10 minutes at 37° C., incubation one hour, pH 7.4, 5% DMSO; read-out: IC50 of Exemplified Compounds Against Renin
pIC50: −log10 of the molar value.
measured endpoint: pIC50

Problem: State measured pIC50 of the compound O=C(c1c(-c2ccccc2)n(C2CCCN(S(=O)(=O)c3ccccn3)C2)c(=O)n1Cc1cccc(Oc2ccccc2)c1)N1CCNCC1 (stereo not drawn) [Example 103] with Recombinant human renin (Homo sapiens).
Result: 6.30 to 7.00

Problem: With Recombinant human renin (Homo sapiens) as the test system, provide measured pIC50 for this compound: O=C(c1c(-c2ccccc2)n(-c2ccccc2)c(=O)n1Cc1ccccc1)N1CCNCC1 [Example 45]
Result: 6.30 to 7.00

Problem: GET pIC50 | system: Recombinant human renin (Homo sapiens) | item: COc1ccccc1-n1c(-c2ccccc2)c(C(=O)N2CCNCC2)n(Cc2cccc(Oc3ccccc3)c2)c1=O [Example 146]
Result: 6.30 to 7.00

Problem: Give reported pIC50 for COc1cccc(Cn2c(C(=O)N3CCNCC3)c(-c3ccccc3)n([C@H]3CCCC[C@H]3O)c2=O)c1 [Example 153] (Recombinant human renin (Homo sapiens))
Result: < 6.00

Problem: Report value only: pIC50, Recombinant human renin (Homo sapiens), COCCn1c(C(=O)N2CCNC[C@H]2Cc2ccccc2)c(-c2ccccc2)n(C2CCCCC2)c1=O [Example 66]
Result: > 7.00

Problem: Please indicate recorded pIC50 of CS(=O)(=O)c1cccc(-n2c(-c3ccccc3)c(C(=O)N3CCNC[C@H]3Cc3ccccc3)[nH]c2=O)c1 [Example 114] measured with Recombinant human renin (Homo sapiens).
Result: > 7.00

Problem: Report the value of pIC50 obtained on Recombinant human renin (Homo sapiens) for O=C(c1[nH]c(=O)n(-c2ccccc2)c1-c1ccccc1)N1CCNC[C@H]1Cc1ccccc1 [Example 109] .
Result: > 7.00

Problem: # return pIC50 for O=C(c1c(-c2ccccc2)n(-c2ccccc2)c(=O)n1Cc1nnc(C2CC2)s1)N1CCNCC1 [Example 48] , test system: Recombinant human renin (Homo sapiens)
Result: < 6.00

Problem: Report its pIC50 with Recombinant human renin (Homo sapiens) as the test system: O=C(c1[nH]c(=O)n(-c2ccccc2)c1-c1ccccc1Cl)N1CCNCC1 [Example 26]
Result: < 6.00

----------
measured on: Recombinant human renin (Homo sapiens)
Construct: isolate the active form (residues 67-406); made in house; host or cells: FreeStyle 293-F cells, transient expression of pcDNA3.1(+)/hREN
Sequence (P00797 67-406): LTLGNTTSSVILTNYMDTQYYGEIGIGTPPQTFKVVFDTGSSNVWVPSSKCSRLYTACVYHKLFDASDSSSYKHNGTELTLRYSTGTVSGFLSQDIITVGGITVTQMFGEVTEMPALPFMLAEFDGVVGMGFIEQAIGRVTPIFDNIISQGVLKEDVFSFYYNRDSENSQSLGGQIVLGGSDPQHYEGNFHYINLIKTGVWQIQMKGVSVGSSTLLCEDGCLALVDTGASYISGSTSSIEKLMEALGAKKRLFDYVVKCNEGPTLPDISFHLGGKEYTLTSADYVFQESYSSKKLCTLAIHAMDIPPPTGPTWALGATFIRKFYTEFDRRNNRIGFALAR
method description: In vitro enzymatic activity assay of renin inhibitors (fluorescence, QXL520/HiLyteFluo488 peptide substrate)
Format: biochemical
condition context: recombinant human renin 3 nM, 1 μM substrate, pre-incubated 10 minutes at 37° C., incubation one hour, pH 7.4, 5% DMSO; read-out: IC50 of Exemplified Compounds Against Renin
measured endpoint: IC50

Problem: Please report the measured IC50 for O=C(c1c(-c2ccccc2)n(C2CCCN(S(=O)(=O)c3ccccc3)C2)c(=O)n1Cc1ccccc1)N1CCNCC1 (centres unmarked) [Example 96]
Result: 500 to 1000 nM

Problem: Return IC50 for the following compound: Cc1ccccc1-n1c(-c2ccccc2)c(C(=O)N2CCNCC2)n(CCNC(=O)C2CCCCC2)c1=O [Example 237]
Result: > 1000 nM

Problem: Retrieve IC50 measured for CC1CN(C(=O)c2[nH]c(=O)n(C3CCCCC3)c2-c2ccccc2)CC(C)N1 (centres unmarked) [Example 40] and print it.
Result: > 1000 nM

Problem: Please list IC50 recorded for the compound O=C(c1[nH]c(=O)n(-c2ccccc2)c1-c1ccc(Cl)cc1)N1CCNCC1 [Example 28]
Result: > 1000 nM

Problem: Using known records, supply IC50 for Cc1ccccc1-n1c(-c2ccccc2)c(C(=O)N2CCNCC2)n(CCNS(=O)(=O)c2ccccc2)c1=O [Example 155]
Result: > 1000 nM

Problem: Output IC50 of O=C(c1c(-c2ccccc2)n([C@@H]2CCCC[C@H]2O)c(=O)n1Cc1ccccc1)N1CCNCC1 [Example 105]
Result: > 1000 nM

Problem: Look up IC50 of COc1ccc(S(=O)(=O)NCCn2c(C(=O)N3CCNCC3)c(-c3ccccc3)n(-c3ccccc3C)c2=O)cc1 [Example 210] and report it.
Result: > 1000 nM

Problem: Tell us which IC50 value is on record for C=CCS(=O)(=O)Nc1ccccc1-n1c(-c2ccccc2)c(C(=O)N2CCNC[C@H]2Cc2ccccc2)[nH]c1=O [Example 129]
Result: < 100 nM

Problem: Supply reported IC50 belonging to this compound: Cc1ccccc1-n1c(-c2ccccc2)c(C(=O)N2CCNCC2)n(CCCNC(=O)NC(C)C)c1=O [Example 227]
Result: > 1000 nM

Problem: Read the entry Cn1c(C(=O)N2CCNCC2)c(-c2ccccc2)n(-c2ccccc2)c1=O [Example 54] and write its reported IC50.
Result: > 1000 nM

Problem: Answer with the recorded IC50 for the compound listed here: O=C(NCCn1c(C(=O)N2CCNCC2)c(-c2ccccc2)n(-c2cccc(N3CCOCC3)c2)c1=O)c1ccccc1 [Example 177]
Result: 500 to 1000 nM

Problem: Note IC50 for the compound shown: Cc1ccccc1-n1c(-c2ccccc2)c(C(=O)N2CCNCC2)n(CCCNC(=O)c2ccc(Cl)cc2)c1=O [Example 243]
Result: > 1000 nM

Problem: Fill in reported IC50 for this entry: COc1cccc(Cn2c(C(=O)N3CCNCC3)c(-c3ccccc3)n(-c3ccccc3OC)c2=O)c1 [Example 147]
Result: > 1000 nM

Problem: Determine its reported IC50: Cc1ccccc1-n1c(-c2ccccc2)c(C(=O)N2CCNCC2)n(Cc2cccc(OCCOc3ccccc3)c2)c1=O [Example 73]
Result: 100 to 500 nM

Problem: Fill in reported IC50 for this entry: O=C(c1c(-c2ccccc2)n([C@H]2CCCC[C@H]2O)c(=O)n1Cc1ccc(F)c(F)c1)N1CCNCC1 [Example 154]
Result: > 1000 nM

Problem: Output measured IC50 for this item: CC(=O)N1CCCC(n2c(-c3ccccc3)c(C(=O)N3CCNCC3)n(Cc3cccc(Oc4ccccc4)c3)c2=O)C1 (centres unmarked) [Example 99]
Result: > 1000 nM

Problem: Using known records, supply IC50 for O=C(c1c(-c2ccccc2)n(-c2cccc(N3CCOCC3)c2)c(=O)n1CCNS(=O)(=O)c1ccccc1)N1CCNCC1 [Example 185]
Result: > 1000 nM

Problem: Give IC50 for the following compound: C=CCn1c(C(=O)N2CCNCC2)c(-c2ccccc2)n(-c2ccccc2C)c1=O [Example 141]
Result: > 1000 nM

Problem: Return value of IC50 for input O=C(c1c(-c2ccccc2)n(C2CCCN(S(=O)(=O)c3ccccn3)C2)c(=O)n1Cc1ccccc1)N1CCNCC1 (centres unmarked) [Example 101] , no commentary.
Result: > 1000 nM

Problem: Hello, please tell me recorded IC50 for this one: COCCCOc1cccc(-n2c(-c3ccccc3)c(C(=O)N3CCNCC3)n(CCNS(=O)(=O)c3ccccc3)c2=O)c1 [Example 183]
Result: > 1000 nM
